# ASSAY_TARGET: T1, human PCSK9 (proprotein convertase subtilisin kexin type 9) (human, UniProt Q8NBP7 31-692)
# T1 construct: Directly immobilized (SPR ProteOn), biotinylated (BLI), or in solution, depending on the assay; also called hPCSK9
# T1 sequence (Q8NBP7 31-692 limits assumed): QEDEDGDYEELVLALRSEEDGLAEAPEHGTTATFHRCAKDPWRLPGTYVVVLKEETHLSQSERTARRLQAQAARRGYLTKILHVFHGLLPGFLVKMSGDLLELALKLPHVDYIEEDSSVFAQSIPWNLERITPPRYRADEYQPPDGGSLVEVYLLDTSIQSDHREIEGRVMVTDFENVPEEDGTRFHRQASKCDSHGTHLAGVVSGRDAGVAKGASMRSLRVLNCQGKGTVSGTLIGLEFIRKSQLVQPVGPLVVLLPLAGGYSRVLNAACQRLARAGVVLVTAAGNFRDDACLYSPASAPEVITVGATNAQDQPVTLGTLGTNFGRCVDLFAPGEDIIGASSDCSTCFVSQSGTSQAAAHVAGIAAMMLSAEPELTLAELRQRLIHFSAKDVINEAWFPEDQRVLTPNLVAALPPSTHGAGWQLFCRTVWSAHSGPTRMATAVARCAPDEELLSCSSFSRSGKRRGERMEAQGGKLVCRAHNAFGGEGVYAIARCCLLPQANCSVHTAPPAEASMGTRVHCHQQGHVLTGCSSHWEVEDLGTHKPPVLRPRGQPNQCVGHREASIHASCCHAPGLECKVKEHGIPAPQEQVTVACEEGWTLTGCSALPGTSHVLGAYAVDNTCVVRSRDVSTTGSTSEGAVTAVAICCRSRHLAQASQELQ
# METHOD: SPR ProteOn, 25 C
# Description: The binding characteristics were characterized by Surface Plasmon Resonance (SPR). […] This allowed kinetic determination in the absence of regeneration. […] Evaluation of the kinetic parameters was performed using the Langmuir interaction model and constant parameter fitting with the ProteOn Manager software.
pKd: −log10 of the molar value.
EXPERIMENTAL_READOUT: pKd

Recorded results for 2 binders are shown here.
BINDER | pKd
1922G04 (designed binder, Anti-PCSK9 Adnectin, His6-tagged; also called ATI001057; ATI-1057) MGVSDVPRDLEVVAATPTSLLISWRPPSHAYGYYRITYGETGGNSPVQEFTVPIGKGTATISGLKPGVDYTITVYAVEYPWKGSGYYHRPISINYRTEIDKPSQHHHHHH | 10.05
2013E01 (designed binder, Anti-PCSK9 Adnectin, His6-tagged, unmodified (not PEGylated); also called ATI001081) MGVSDVPRDLEVVAATPTSLLISWVPPSDDYGYYRITYGETGGNSPVQEFTVPIGKGTATISGLKPGVDYTITVYAVEFPWPHAGYYHRPISINYRTEIDKPSQHHHHHH | 9.54

I: 1923B02 (designed binder, Anti-PCSK9 Adnectin, His6-tagged) MGVSDVPRDLEVVAATPTSLLISWTPPPKGYGYYRITYGETGGNSPVQEFTVPVGEGTATISGLKPGVDYTITVYAVEYTYNGAGYYHRPISINYRTEIDKPSQHHHHHH
II: 1459D05 (designed binder, also called ATI000891; ATI-891) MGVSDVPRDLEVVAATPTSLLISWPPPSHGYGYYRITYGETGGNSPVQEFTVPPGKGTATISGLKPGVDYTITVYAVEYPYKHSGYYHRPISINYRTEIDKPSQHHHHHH
So which one has the bigger pKd here, I or II ? Write down the label attached to your selection. I
